Target: 25 HLA Class II alleles (purified class II MHC molecules)
Assay: competitive radiolabelled-peptide binding to purified HLA class II (25 alleles, binder if IC50 <300 nM); worldwide phenotypic coverage of the alleles found to bind
Where no end group is shown, it is not given here.
propertyLabel: Measured binding coverage 25 alleles (%)

binder	Measured binding coverage 25 alleles [%]
TDDNEEPIAPYHFDLSGHAF [peptide 204 (Phl p 1, 93)]	78
KPEVKYAVFEAALTKAIT (not fully specified) [peptide 142, Lol p 5a (Rye09B1)]	100
LVKYVNGDGDVVAVDIKEKG [peptide 209 (Phl p 1, 163)]	85
KSSKPLVGPFNFRFMSKGGM [peptide 220 (Phl p 3, 56)]	96
GFKAALAAAAGVPPADKYRT [peptide 230 (Phl p 5, 31)]	92

Attribution: patent US20180207228A1
